The following compounds each carry a recorded Ki for 5-HT7 (Homo sapiens).
Where a name gives a salt, the structure may show the parent alone.
The figure you give is taken to be in nM; do not add the unit.

Some compounds with recorded Ki:
compound="CC1Cc2ccccc2N1C(=O)CN1CCN(c2ccccc2)CC1 (stereo not drawn) [STT-00185641]" measured_endpoint=Ki units_label=nM value_measured=2820
compound="COc1ccc2c(c1)C(=O)N(CCN1CCN(c3ccccc3OC)CC1)C2 [GFR-VII-280-HCl]" measured_endpoint=Ki units_label=nM value_measured=529
compound="COc1ccc2c(c1)C(=O)N(CCCN1CCN(c3ccccc3OC)CC1)C2 [GFR-VII-273]" measured_endpoint=Ki units_label=nM value_measured=545

(Q) Missing value: Ki, 5-HT7 (Homo sapiens), entry CC1Cc2ccccc2N1C(=O)CN1CCN(Cc2ccccc2)CC1 (stereo not drawn) [STT-00185638] . Fill in?
(A) 4360

(Q) Missing value: Ki, 5-HT7 (Homo sapiens), entry COc1ccc2c(c1)CN(CCCN1CCN(c3ccccc3OC)CC1)C2=O [GFR-VII-290] . Fill in?
(A) 732

(Q) Missing value: Ki, 5-HT7 (Homo sapiens), entry COc1cc2c(cc1OC)C(=O)N(CCCCN1CCN(c3ccccc3OC)CC1)C2 [GFR-VII-285] . Fill in?
(A) 228
